Study System: human PDGF β receptor intracellular tyrosine kinase domain (Homo sapiens, UniProt P09619)
Construct: human PDGF β receptor intracellular tyrosine kinase domain; made in house; host or cells: SF9 insect cells, recombinant baculovirus; cell lysates used
Sequence (P09619 554-1106 limits assumed): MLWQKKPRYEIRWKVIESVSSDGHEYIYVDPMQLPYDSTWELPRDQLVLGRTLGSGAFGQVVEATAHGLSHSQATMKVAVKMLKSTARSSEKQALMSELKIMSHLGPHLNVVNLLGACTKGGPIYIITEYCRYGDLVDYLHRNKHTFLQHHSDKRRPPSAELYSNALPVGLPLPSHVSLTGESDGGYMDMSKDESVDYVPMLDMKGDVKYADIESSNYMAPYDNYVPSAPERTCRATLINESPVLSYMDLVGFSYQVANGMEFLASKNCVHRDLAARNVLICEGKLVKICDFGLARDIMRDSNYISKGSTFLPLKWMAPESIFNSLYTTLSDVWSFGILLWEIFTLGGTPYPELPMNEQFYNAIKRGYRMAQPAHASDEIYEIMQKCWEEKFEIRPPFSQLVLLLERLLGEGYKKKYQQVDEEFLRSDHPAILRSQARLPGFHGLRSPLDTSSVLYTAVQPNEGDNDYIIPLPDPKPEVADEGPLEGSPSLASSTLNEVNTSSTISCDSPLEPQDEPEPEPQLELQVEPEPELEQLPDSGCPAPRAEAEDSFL
Test Method Notes: PDGF receptor tyrosine kinase inhibition assay (P^32 incorporation in Glu-Tyr)
Format: biochemical
Recorded Conditions: read-out: % Inhibition at 100 μM (PDGFR TK)
Known inhibition at 100 µM of a selection of molecules
Result Type: inhibition at 100 µM (%)

* Cn1c(SSc2c(C(=O)c3ccccc3)c3ccccc3n2C)c(C(=O)c2ccccc2)c2ccccc21 [Compound 100] | 23
* CCn1c(SSc2c(C(=O)Nc3ccccc3)c3ccccc3n2CC)c(C(=O)Nc2ccccc2)c2ccccc21 [Compound 71] | 5
* COC(=O)c1ccc(C(=O)C2C(=S)N(C)c3ccccc32)cc1 (stereo not shown) [Compound 26] | 5
* Cn1c(SSc2c(C(=O)Nc3ccccc3)c3cc([N+](=O)[O-])ccc3n2C)c(C(=O)Nc2ccccc2)c2cc([N+](=O)[O-])ccc21 [Compound 86] | 5

Taken from patent US5464861A.
